assay: supercomplex reporter luminescence per Hoechst cell count – Hoechst nuclei count (AID 1645838); details: Cells, luminescence/Hoechst cell count ratio, library stock concentration (final well concentration not given) 10 mM;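 also: control cybrid cells; higher means more mitochondrial supercomplex formation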
Screen size: about 2,000 compounds; about 100 (5%) were called active. Rule as the data show it: active = z-score above about 2; inactive = the rest. The entries come from a sample that favours actives as a whole.
Valid outcomes are listed here; reply with one: active, inactive

## Task State the result this test recorded for CC(Cc1cc2c(c(C(N)=O)c1)N(CCCO)CC2)NCCOc1ccccc1OCC(F)(F)F (stereo unspecified) .
## Result inactive

## Task One more compound: CN(C)CCC1(c2ccc(Cl)cc2)Cc2ccccc2C(=O)O1 (stereo unspecified)
## Result inactive

## Task One more compound: OCc1cc(C(O)CNCCCCCCOCCCCc2ccccc2)ccc1O (stereo unspecified)
## Result inactive

## Task One more compound: C#C[C@]1(O)CC[C@@H]2[C@@H]3CCc4cc(O)ccc4[C@@H]3CC[C@@]21C
## Result inactive

## Task One more compound: CC(C)c1ccccc1OC(=O)NCCc1ccc2ccccc2c1
## Result inactive

## Task One more compound: CC(C)(C)C(O)C=Cc1ccc2c(c1)OCO2 (stereo unspecified)
## Result inactive

## Task One more compound: CC(=O)c1cccc(NC(=O)CN2CCc3cc4c(cc3C2)OCCCO4)c1
## Result inactive

## Task One more compound: COC1CC2CCC(C)C(O)(O2)C(=O)C(=O)N2CCCCC2C(=O)OC(C(C)CC2CCC(O)C(OC)C2)CC(=O)C(C)C=C(C)C(O)C(OC)C(=O)C(C)CC(C)C=CC=CC=C1C (stereo unspecified)
## Result inactive

## Task One more compound: COc1ccc(C(=O)Nc2sc(Nc3ccccc3)nc2C(N)=O)cc1
## Result inactive

## Task One more compound: CCOC(=O)C(N)Cc1ccc(-c2cc(OC(c3ccc(Cl)cc3-n3ccc(C)n3)C(F)(F)F)nc(N)n2)cc1 (stereo unspecified)
## Result inactive

## Task One more compound: CN(C)C1CCc2[nH]c3ccc(NC(=O)c4ccc(F)cc4)cc3c2C1 (stereo unspecified)
## Result inactive

## Task One more compound: CC(=O)Nc1ccc(C(=O)Nc2sc(Nc3ccccc3)nc2C(N)=O)cc1
## Result active

## Task One more compound: Cc1cn(-c2cc(NC(=O)c3ccc(C)c(Nc4nccc(-c5cccnc5)n4)c3)cc(C(F)(F)F)c2)cn1
## Result inactive

## Task One more compound: Oc1ccc(Nc2nc(-c3ccc(Cl)cc3)cs2)cc1
## Result active

## Task One more compound: COc1ccc(CCOC2CCCCC2N2CCC(O)C2)cc1OC (stereo unspecified)
## Result inactive

## Task One more compound: Cn1cc(C=C2C(=O)Nc3cccnc32)c2ccccc21
## Result inactive

## Task One more compound: NCCCCN(Cc1nc2ccccc2[nH]1)C1CCCc2cccnc21 (stereo unspecified)
## Result active

## Task One more compound: COc1ccc(C(=O)C(=O)c2ccccc2)cc1
## Result inactive

## Task One more compound: Cc1nc(C(=O)N2CCCC2Cc2nnc(-c3ccccc3)o2)c(-c2ccccc2F)s1 (stereo unspecified)
## Result inactive

## Task One more compound: Cc1ccc(C(=O)Nc2ccc(Oc3cc4cnn(C)c4cc3-c3cn[nH]c3)c(F)c2)c(=O)n1-c1ccc(F)cc1
## Result inactive

## Task One more compound: CN(CC=CC#CC(C)(C)C)Cc1cccc2ccccc12
## Result inactive

## Task One more compound: CCCCCCCCCCCCCCC(=O)NCCO
## Result inactive

## Task One more compound: NC(N)=NCCCC(NC(=O)COCC(c1ccccc1)c1ccccc1)C(=O)O (stereo unspecified)
## Result inactive

## Task One more compound: Cc1cc(N2CCOCC2)cc2[nH]c(-c3c(NCC(O)c4cccc(Cl)c4)cc[nH]c3=O)nc12 (stereo unspecified)
## Result active

## Task One more compound: CN1c2ccc([N+](=O)[O-])cc2N=C(c2ccc(C(=O)O)cc2)c2cc3c(cc21)C(C)(C)CCC3(C)C
## Result inactive

## Task One more compound: CC(C)NCC(O)c1ccc(O)c(O)c1 (stereo unspecified)
## Result inactive
